Taken from patent US11802133B2.

Biological target: MAGL (recombinant wild-type) (Homo sapiens (Human))
Sequence (Q99685 whole entry, species assumed): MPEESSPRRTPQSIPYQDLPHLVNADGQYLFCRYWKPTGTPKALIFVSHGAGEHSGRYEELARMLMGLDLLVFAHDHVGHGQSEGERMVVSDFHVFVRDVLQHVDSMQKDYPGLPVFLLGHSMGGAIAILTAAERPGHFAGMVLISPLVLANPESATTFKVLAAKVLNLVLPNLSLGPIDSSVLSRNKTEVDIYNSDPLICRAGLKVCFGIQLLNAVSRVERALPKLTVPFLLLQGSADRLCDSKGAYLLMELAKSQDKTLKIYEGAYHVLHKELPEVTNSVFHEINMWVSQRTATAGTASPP
Experiment: 4-NPA assay: MAGL inhibitory activity by hydrolysis of 4-nitrophenylacetate (absorbance at 405 nm)
Settings: measured in 4-NPA assay (footnote [a]); 1 nM MAGL, 300 μM 4-nitrophenylacetate
Description: This assay is hereinafter abbreviated “4-NPA assay”. The plate was shaked for 1 min at 2000 rpm (Variomag Teleshake) and then incubated for 15 min at RT. […] The final concentrations in the assay were 1 nM MAGL and 300 μM 4-Nitrophenylacetate. […] A second measurement was then done after incubation for 80 min at RT. From the two measurements, the slope was calculated by subtracting the first from the second measurement.
Readout: IC50 (nM)

[a] O=C1CO[C@H]2CCN(C(=O)N3CCC(Oc4ccc(C(F)(F)F)cc4Cl)CC3)C[C@H]2N1 [Example 40]
[b] O=C1CO[C@H]2CCN(C(=O)N3CC(OCc4ccc(C(F)(F)F)c(F)c4)C3)C[C@H]2N1 [Example 114]
q: Lab log: flag the item ( a or b ) with the smaller IC50 figure. # respond with the chosen item's label
a: b
(b: 5 nM, a: 12 nM)

[P] O=C1CO[C@H]2CCN(C(=O)N3CCC(Cc4ccc(C(F)(F)F)cc4)C3)C[C@H]2N1 (stereo partly shown) [Example 100]
[Q] O=C1CO[C@H]2CCN(C(=O)N3CCC(COc4ccc(F)cc4Cl)CC3)C[C@H]2N1 [Example 24]
[R] O=C1CO[C@@H]2CCN(C(=O)N3CCC(Cn4cc(C(F)(F)F)cn4)CC3)C[C@@H]2N1 (stereo in doubt) [Example 26]
q: Which order do these items take when sorted by rising IC50? List them. Ranked list of labels, please, in the requested order.
a: Q, P, R

[I] O=C1CO[C@H]2CCN(C(=O)N3CCC(Cn4cnc(C(F)(F)F)c4)CC3)C[C@H]2N1 [Example 60]
[II] O=C1CO[C@H]2CCN(C(=O)N3CCC(COc4ccc(OC(F)(F)F)cc4Cl)CC3)C[C@H]2N1 [Example 46]
q: API: POST /compare with I and II ; response names the item with higher IC50. # respond with the chosen item's label
a: I
(I: 680 nM, II: 5 nM)
